// relative viability lookup, one value per entry
Test system: NCI-H1792
Test: relative viability (nuclei count vs DMSO), 5 days (fraction); higher = more cells survive
Conditions: first compound 0.1581 µM
Please reply with the value in numeric form only.

Example results:
[
  {
    "Molecule": "Nc1ccn([C@@H]2O[C@H](CO)[C@@H](O)[C@@H]2O)c(=O)n1 [Cytarabine] + C[C@]1(O)C[C@@H](c2nc(-c3ccc4ccc(-c5ccccc5)nc4c3)c3c(N)nccn32)C1 [Linsitinib] (partner 1 µM)",
    "System": "NCI-H1792",
    "relative viability": 0.348
  },
  {
    "Molecule": "COc1cc2nccc(Oc3ccc(NC(=O)Nc4cc(C)on4)c(Cl)c3)c2cc1OC [Tivozanib] + C[C@@H](Oc1cc(-c2cnn(C3CCNCC3)c2)cnc1N)c1c(Cl)ccc(F)c1Cl [Crizotinib] (partner 1 µM)",
    "System": "NCI-H1792",
    "relative viability": 0.933
  },
  {
    "Molecule": "Nc1ccn([C@@H]2O[C@H](CO)[C@@H](O)[C@@H]2O)c(=O)n1 [Cytarabine] + C[C@@H](Oc1cc(-c2cnn(C3CCNCC3)c2)cnc1N)c1c(Cl)ccc(F)c1Cl [Crizotinib] (partner 1 µM)",
    "System": "NCI-H1792",
    "relative viability": 0.53
  }
]

Ask: Item under review: COc1cc2nccc(Oc3ccc(NC(=O)Nc4cc(C)on4)c(Cl)c3)c2cc1OC [Tivozanib] + CC(=O)c1c(C)c2cnc(Nc3ccc(N4CCNCC4)cn3)nc2n(C2CCCC2)c1=O [Palbociclib] (partner 0.5 µM) . Reported relative viability?
Result: 0.698

----------
Tested on: NCI-H2023
Assay: relative viability (nuclei count vs DMSO), 5 days (fraction); higher = more cells survive
Details: first compound 0.05 µM
// relative viability lookup, one value per entry

[
  {
    "Compound": "Nc1ccn([C@@H]2O[C@H](CO)[C@@H](O)[C@@H]2O)c(=O)n1 [Cytarabine] + CCNC(=O)c1noc(-c2cc(C(C)C)c(O)cc2O)c1-c1ccc(CN2CCOCC2)cc1 [Luminespib] (partner 0.01 µM)",
    "Reading": 0.19
  }
]

Ask: Item under review: Nc1ccn([C@@H]2O[C@H](CO)[C@@H](O)[C@@H]2O)c(=O)n1 [Cytarabine] + CC1(C)CCC(c2ccc(Cl)cc2)=C(CN2CCN(c3ccc(C(=O)NS(=O)(=O)c4ccc(N[C@H](CCN5CCOCC5)CSc5ccccc5)c(S(=O)(=O)C(F)(F)F)c4)cc3)CC2)C1 [Navitoclax] (partner 0.5 µM) . Reported relative viability?
Result: 0.195

----------
// relative viability lookup, one value per entry
Tested on: H3255
Assay: relative viability (nuclei count vs DMSO), 5 days (fraction); higher = more cells survive
Settings: first compound 0.253 µM
Please reply with the value in numeric form only.

[
  {
    "Compound": "O=c1[nH]c2ccccc2n1C1CCN(CCCC(c2ccc(F)cc2)c2ccc(F)cc2)CC1 [Pimozide] + Nc1nc2[nH]cc(CCc3ccc(C(=O)N[C@@H](CCC(=O)O)C(=O)O)cc3)c2c(=O)[nH]1 [Pemetrexed] (partner 0.2 µM)",
    "System": "H3255",
    "relative viability": 0.53
  }
]

Okay, next one:
Ask: API: value(readout=relative viability, system=H3255) for record O=c1[nH]c2ccccc2n1C1CCN(CCCC(c2ccc(F)cc2)c2ccc(F)cc2)CC1 [Pimozide] + C[C@@H](Oc1cc(-c2cnn(C3CCNCC3)c2)cnc1N)c1c(Cl)ccc(F)c1Cl [Crizotinib] (partner 1 µM)
Result: 0.801

----------
// relative viability lookup, one value per entry
Test system: NCI-H596
Test: relative viability (nuclei count vs DMSO), 5 days (fraction); higher = more cells survive
Conditions: first compound 0.0002 µM
Please reply with the value in numeric form only.

Example results:
[
  {
    "Compound": "CC(=O)O[C@@]12CO[C@@H]1C[C@H](O)[C@@]1(C)C(=O)[C@H](O)C3=C(C)[C@@H](OC(=O)[C@H](O)[C@@H](NC(=O)OC(C)(C)C)c4ccccc4)C[C@@](O)([C@@H](OC(=O)c4ccccc4)[C@H]21)C3(C)C [Docetaxel] + COc1cc2c(Oc3ccc(NC(=O)C4(C(=O)Nc5ccc(F)cc5)CC4)cc3F)ccnc2cc1OCCCN1CCOCC1 [Foretinib] (partner 0.25 µM)",
    "System": "NCI-H596",
    "Reading": 0.901
  },
  {
    "Compound": "CC(=O)O[C@@]12CO[C@@H]1C[C@H](O)[C@@]1(C)C(=O)[C@H](O)C3=C(C)[C@@H](OC(=O)[C@H](O)[C@@H](NC(=O)OC(C)(C)C)c4ccccc4)C[C@@](O)([C@@H](OC(=O)c4ccccc4)[C@H]21)C3(C)C [Docetaxel] + CC1(C)CCC(c2ccc(Cl)cc2)=C(CN2CCN(c3ccc(C(=O)NS(=O)(=O)c4ccc(N[C@H](CCN5CCOCC5)CSc5ccccc5)c(S(=O)(=O)C(F)(F)F)c4)cc3)CC2)C1 [Navitoclax] (partner 0.5 µM)",
    "System": "NCI-H596",
    "Reading": 0.882
  }
]

Ask: API: value(readout=relative viability, system=NCI-H596) for record CC(=O)O[C@@]12CO[C@@H]1C[C@H](O)[C@@]1(C)C(=O)[C@H](O)C3=C(C)[C@@H](OC(=O)[C@H](O)[C@@H](NC(=O)OC(C)(C)C)c4ccccc4)C[C@@](O)([C@@H](OC(=O)c4ccccc4)[C@H]21)C3(C)C [Docetaxel] + N=C(N)NC(=N)NCCc1ccccc1 [Phenformin] (partner 250 µM)
Result: 0.827

Ask: Repeat with CC(=O)O[C@@]12CO[C@@H]1C[C@H](O)[C@@]1(C)C(=O)[C@H](O)C3=C(C)[C@@H](OC(=O)[C@H](O)[C@@H](NC(=O)OC(C)(C)C)c4ccccc4)C[C@@](O)([C@@H](OC(=O)c4ccccc4)[C@H]21)C3(C)C [Docetaxel] + NC(=O)Nc1cc(-c2cccc(F)c2)sc1C(=O)N[C@H]1CCCNC1 [AZD7762] (partner 0.2 µM)
Result: 1.07

----------
// relative viability lookup, one value per entry
Tested on: HARA
Assay: relative viability (nuclei count vs DMSO), 5 days (fraction); higher = more cells survive
Conditions: first compound 0.02 µM
Please reply with the value in numeric form only.

Example results:
[
  {
    "Compound": "CC(=O)O[C@@]12CO[C@@H]1C[C@H](O)[C@@]1(C)C(=O)[C@H](O)C3=C(C)[C@@H](OC(=O)[C@H](O)[C@@H](NC(=O)OC(C)(C)C)c4ccccc4)C[C@@](O)([C@@H](OC(=O)c4ccccc4)[C@H]21)C3(C)C [Docetaxel] + C[C@]1(O)C[C@@H](c2nc(-c3ccc4ccc(-c5ccccc5)nc4c3)c3c(N)nccn32)C1 [Linsitinib] (partner 1 µM)",
    "relative viability": 0.0632
  },
  {
    "Compound": "CC(=O)O[C@@]12CO[C@@H]1C[C@H](O)[C@@]1(C)C(=O)[C@H](O)C3=C(C)[C@@H](OC(=O)[C@H](O)[C@@H](NC(=O)OC(C)(C)C)c4ccccc4)C[C@@](O)([C@@H](OC(=O)c4ccccc4)[C@H]21)C3(C)C [Docetaxel] + CC1(C)CCC(c2ccc(Cl)cc2)=C(CN2CCN(c3ccc(C(=O)NS(=O)(=O)c4ccc(N[C@H](CCN5CCOCC5)CSc5ccccc5)c(S(=O)(=O)C(F)(F)F)c4)cc3)CC2)C1 [Navitoclax] (partner 0.5 µM)",
    "relative viability": 0.0621
  }
]

Okay, next one:
Ask: Item under review: CC(=O)O[C@@]12CO[C@@H]1C[C@H](O)[C@@]1(C)C(=O)[C@H](O)C3=C(C)[C@@H](OC(=O)[C@H](O)[C@@H](NC(=O)OC(C)(C)C)c4ccccc4)C[C@@](O)([C@@H](OC(=O)c4ccccc4)[C@H]21)C3(C)C [Docetaxel] + Cc1nc(NC(=O)N2CCC[C@H]2C(N)=O)sc1-c1ccnc(C(C)(C)C(F)(F)F)c1 [Alpelisib] (partner 2 µM) . Reported relative viability?
Result: 0.0727

----------
// relative viability lookup, one value per entry
System: NCI-H650
Assay: relative viability (nuclei count vs DMSO), 5 days (fraction); higher = more cells survive
Conditions: first compound 2.53 µM
Please reply with the value in numeric form only.

Ask: API: value(readout=relative viability, system=NCI-H650) for record O=c1[nH]c2ccccc2n1C1CCN(CCCC(c2ccc(F)cc2)c2ccc(F)cc2)CC1 [Pimozide] + CS(=O)(=O)N1CCN(Cc2cc3nc(-c4cccc5[nH]ncc45)nc(N4CCOCC4)c3s2)CC1 [Pictilisib] (partner 1 µM)
Result: 0.92

Ask: Repeat with O=c1[nH]c2ccccc2n1C1CCN(CCCC(c2ccc(F)cc2)c2ccc(F)cc2)CC1 [Pimozide] + Cc1nc(NC(=O)N2CCC[C@H]2C(N)=O)sc1-c1ccnc(C(C)(C)C(F)(F)F)c1 [Alpelisib] (partner 2 µM)
Result: 1.07

Ask: Repeat with O=c1[nH]c2ccccc2n1C1CCN(CCCC(c2ccc(F)cc2)c2ccc(F)cc2)CC1 [Pimozide] + O=C(c1cc(Cc2n[nH]c(=O)c3ccccc23)ccc1F)N1CCN(C(=O)C2CC2)CC1 [Olaparib] (partner 8 µM)
Result: 0.404
